measured.target: UniProt Q9NYV4
Sequence (Q9NYV4 whole entry): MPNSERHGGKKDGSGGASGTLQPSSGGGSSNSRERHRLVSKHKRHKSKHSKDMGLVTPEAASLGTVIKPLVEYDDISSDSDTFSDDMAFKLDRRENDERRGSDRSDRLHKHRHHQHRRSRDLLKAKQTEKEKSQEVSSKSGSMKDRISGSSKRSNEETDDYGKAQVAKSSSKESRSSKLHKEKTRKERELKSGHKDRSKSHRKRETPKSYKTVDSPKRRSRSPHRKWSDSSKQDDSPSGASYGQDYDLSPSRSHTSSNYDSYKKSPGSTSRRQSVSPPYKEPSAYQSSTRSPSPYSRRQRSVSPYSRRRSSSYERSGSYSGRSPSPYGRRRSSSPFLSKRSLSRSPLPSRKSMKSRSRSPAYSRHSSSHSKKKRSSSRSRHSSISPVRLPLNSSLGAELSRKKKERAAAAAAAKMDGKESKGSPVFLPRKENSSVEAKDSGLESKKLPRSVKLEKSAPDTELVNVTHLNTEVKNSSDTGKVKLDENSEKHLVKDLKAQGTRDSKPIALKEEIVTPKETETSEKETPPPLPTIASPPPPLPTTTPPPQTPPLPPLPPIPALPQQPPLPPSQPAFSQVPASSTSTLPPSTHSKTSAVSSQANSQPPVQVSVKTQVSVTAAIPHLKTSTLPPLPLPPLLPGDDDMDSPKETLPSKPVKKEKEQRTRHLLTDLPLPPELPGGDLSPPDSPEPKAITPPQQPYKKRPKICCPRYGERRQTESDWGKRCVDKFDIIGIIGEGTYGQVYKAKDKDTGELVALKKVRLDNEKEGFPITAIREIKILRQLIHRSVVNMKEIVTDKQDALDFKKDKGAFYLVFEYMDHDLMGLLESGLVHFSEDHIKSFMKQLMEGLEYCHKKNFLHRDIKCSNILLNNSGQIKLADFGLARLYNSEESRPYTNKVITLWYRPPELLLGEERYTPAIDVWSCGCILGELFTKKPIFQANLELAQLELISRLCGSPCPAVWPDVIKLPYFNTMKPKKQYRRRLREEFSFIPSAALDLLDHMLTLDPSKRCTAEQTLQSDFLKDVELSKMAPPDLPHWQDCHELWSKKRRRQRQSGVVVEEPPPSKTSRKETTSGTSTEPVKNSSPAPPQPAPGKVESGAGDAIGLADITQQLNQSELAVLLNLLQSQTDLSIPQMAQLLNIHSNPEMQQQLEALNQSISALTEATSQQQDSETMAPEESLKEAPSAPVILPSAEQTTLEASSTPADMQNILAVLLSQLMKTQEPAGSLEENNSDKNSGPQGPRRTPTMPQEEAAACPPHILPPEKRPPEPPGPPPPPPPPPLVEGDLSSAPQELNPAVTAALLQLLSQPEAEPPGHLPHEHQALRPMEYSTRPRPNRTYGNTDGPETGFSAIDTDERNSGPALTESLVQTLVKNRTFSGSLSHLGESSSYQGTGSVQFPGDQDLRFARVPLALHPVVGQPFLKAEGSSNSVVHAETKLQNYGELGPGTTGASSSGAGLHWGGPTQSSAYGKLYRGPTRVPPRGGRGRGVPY
Sequence (O75909 whole entry partner): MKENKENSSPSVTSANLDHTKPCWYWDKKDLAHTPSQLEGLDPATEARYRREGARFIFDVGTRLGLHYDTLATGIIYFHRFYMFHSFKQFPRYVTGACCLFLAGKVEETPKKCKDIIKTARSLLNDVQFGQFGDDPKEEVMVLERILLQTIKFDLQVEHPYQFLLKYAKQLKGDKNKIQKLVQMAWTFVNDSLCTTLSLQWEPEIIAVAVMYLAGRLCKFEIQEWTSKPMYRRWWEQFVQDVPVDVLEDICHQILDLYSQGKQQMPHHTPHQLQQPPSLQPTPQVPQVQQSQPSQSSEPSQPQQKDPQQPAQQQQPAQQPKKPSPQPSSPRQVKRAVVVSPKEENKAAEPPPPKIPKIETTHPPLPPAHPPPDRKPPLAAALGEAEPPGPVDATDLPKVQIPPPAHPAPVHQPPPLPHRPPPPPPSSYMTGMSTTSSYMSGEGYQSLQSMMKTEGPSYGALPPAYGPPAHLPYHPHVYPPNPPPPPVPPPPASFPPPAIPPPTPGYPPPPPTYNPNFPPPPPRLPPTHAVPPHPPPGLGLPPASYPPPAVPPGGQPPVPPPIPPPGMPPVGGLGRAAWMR
method.notes: Western blot degradation of CDK12 (Example 2)
Assay type: cell-based
Parameters: degradation of CDK12/13 protein in leukemia cells KASUMI-1, MV4-11, and Jurkat; endogenous in cells
protocol.conditions: DC50 classes; cell line not given
readout.kind: CDK12 degradation Activity

Cc1ncsc1-c1ccc([C@H](C)NC(=O)[C@@H]2C[C@@H](O)CN2C(=O)[C@@H](NC(=O)CC#Cc2ccc(-c3ccc(N(C(=O)NCc4ccccc4)[C@H]4CC[C@H](Nc5ccc(C#N)cn5)CC4)cc3)cn2)C(C)(C)C)cc1	−
Cc1ncsc1-c1ccc([C@H](C)NC(=O)[C@@H]2C[C@@H](O)CN2C(=O)[C@@H](NC(=O)COCCOCCn2cc(-c3ccc(N(C(=O)NCc4ccccc4)[C@H]4CC[C@H](Nc5ccc(C#N)cn5)CC4)cc3)ccc2=O)C(C)(C)C)cc1	−
Cc1ncsc1-c1ccc([C@H](C)NC(=O)[C@@H]2C[C@@H](O)CN2C(=O)[C@@H](NC(=O)N2CC3(CCN(c4ccc(N(C(=O)NCc5ccccc5)[C@H]5CC[C@H](Nc6ncc(C#N)cn6)CC5)cc4)CC3)C2)C(C)(C)C)cc1	−
Cc1ncsc1-c1ccc([C@H](C)NC(=O)[C@@H]2C[C@@H](O)CN2C(=O)[C@@H](NC(=O)N2CC3(CCN(c4ccc(N(C(=O)NCc5ccccc5)[C@H]5CC[C@H](Nc6ccc(C#N)cn6)CC5)cc4)CC3)C2)C(C)(C)C)cc1	−

Hey, just so you know, these numbers are from patent US20260327204A1.
